Target chain: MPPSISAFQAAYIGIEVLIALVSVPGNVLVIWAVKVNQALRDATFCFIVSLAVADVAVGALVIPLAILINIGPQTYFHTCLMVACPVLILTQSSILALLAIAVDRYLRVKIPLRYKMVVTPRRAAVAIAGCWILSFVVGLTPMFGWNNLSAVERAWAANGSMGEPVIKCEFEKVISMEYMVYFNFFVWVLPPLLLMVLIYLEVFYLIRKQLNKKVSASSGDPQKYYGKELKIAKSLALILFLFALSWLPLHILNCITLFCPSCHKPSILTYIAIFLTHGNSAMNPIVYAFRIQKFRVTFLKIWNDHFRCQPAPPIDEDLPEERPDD
measured attribute: Ki (nM)

{"structure smiles": "OC[C@H]1O[C@@H](n2cnc3c(N[C@H]4CCC[C@@H]4O)ncnc32)[C@H](O)[C@@H]1O", "test value": 15.8}
{"structure smiles": "COC[C@H]1O[C@@H](n2cnc3c(Nc4ccc(O)c(F)c4)ncnc32)[C@H](O)[C@@H]1O", "test value": 251}

----------
target under test: UniProt P29275
Sequence (P29275 whole entry): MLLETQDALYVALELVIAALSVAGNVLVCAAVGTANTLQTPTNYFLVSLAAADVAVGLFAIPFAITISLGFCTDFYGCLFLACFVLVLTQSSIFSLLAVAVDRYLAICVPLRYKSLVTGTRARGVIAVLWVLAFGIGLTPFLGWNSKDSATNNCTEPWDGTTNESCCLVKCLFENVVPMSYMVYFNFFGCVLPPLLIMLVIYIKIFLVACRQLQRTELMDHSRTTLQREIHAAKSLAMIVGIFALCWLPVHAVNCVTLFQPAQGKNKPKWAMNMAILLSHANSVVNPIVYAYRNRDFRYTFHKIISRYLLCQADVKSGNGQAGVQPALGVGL

{"structure smiles": "O[C@@H]1[C@H](O)[C@@H](CF)O[C@H]1n1cnc2c(NC3CCOCC3)ncnc21", "Ki": "> 100 µM"}

----------
Target chain: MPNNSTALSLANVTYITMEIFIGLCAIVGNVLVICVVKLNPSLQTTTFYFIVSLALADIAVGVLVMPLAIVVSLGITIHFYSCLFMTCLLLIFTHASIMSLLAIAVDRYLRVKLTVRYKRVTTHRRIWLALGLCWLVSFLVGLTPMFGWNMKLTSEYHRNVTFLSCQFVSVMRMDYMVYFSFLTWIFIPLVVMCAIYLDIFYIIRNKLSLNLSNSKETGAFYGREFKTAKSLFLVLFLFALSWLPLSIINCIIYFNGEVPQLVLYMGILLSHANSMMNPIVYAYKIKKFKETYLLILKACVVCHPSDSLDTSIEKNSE
pKi: −log10 of the molar value.

{"structure smiles": "O[C@@H]1[C@H](O)[C@@H](CF)O[C@H]1n1cnc2c(NC3CCOCC3)ncnc21", "pKi": 5.60}

Cited source for all entries: ChEMBL document CHEMBL3045486
